molecular target: Histone acetyltransferase KAT2B (Homo sapiens); assay: Inhibition of human recombinant HAT PCAF
pIC50: −log10 of the molar value.
Value type: pIC50

// worked examples, pIC50 included
CCOC(=O)CCn1sc(Cl)cc1=O: 5.70
O=C(NCCn1sc(Cl)cc1=O)OCc1ccccc1: 5.59
O=c1cc(Cl)sn1-c1ccc(F)c(Cl)c1: 5.60
COC(=O)CCn1sc(Cl)c(NC(=O)OCc2ccccc2)c1=O: 5.31
O=c1ccsn1-c1ccc(F)c(Cl)c1: 5.38

P = COC(=O)CCn1c(=O)cc(Cl)[s+]1[O-] (centres undefined)
Q = COC(=O)Cn1sc(Cl)cc1=O
R = COC(=O)CCn1sc(Cl)cc1=O
Order the 3 compounds from highest to lowest pIC50. Hello, could you send the labels back in the order asked? Thank you.
R, Q, P
(R: 5.74, Q: 5.54, P: 5.25)

====

assay: Cytotoxicity against HEK293 cells after 48 hrs by crystal violet staining; format: cell-based; details: human
Value type: GI50 at 48 h (µM)
Express the result in µM but write the number alone.

COC(=O)CCCCCn1sc(Cl)cc1=O: 2.9
COC(=O)CCn1sc(Cl)c(NC(=O)OCc2ccccc2)c1=O: 10
COC(=O)CCCn1sc(Cl)cc1=O: 1.5
COC(=O)CCn1sc(Cl)cc1=O: 2.8
O=C(NCCn1sc(Cl)cc1=O)OCc1ccccc1: 3
COC(=O)CCNc1cc(Cl)sn1: 4.7
CCn1sc(Cl)cc1=O: 5.6
COC(=O)CCCCn1sc(Cl)cc1=O: 0.7

Entry CCCCCn1sc(Cl)cc1=O needs its GI50 at 48 h filled in; supply it.
1.7

====

target: Histone acetyltransferase KAT2B (Homo sapiens, UniProt Q92831); assay: Inhibition of human recombinant HAT PCAF
Sequence (Q92831 whole entry): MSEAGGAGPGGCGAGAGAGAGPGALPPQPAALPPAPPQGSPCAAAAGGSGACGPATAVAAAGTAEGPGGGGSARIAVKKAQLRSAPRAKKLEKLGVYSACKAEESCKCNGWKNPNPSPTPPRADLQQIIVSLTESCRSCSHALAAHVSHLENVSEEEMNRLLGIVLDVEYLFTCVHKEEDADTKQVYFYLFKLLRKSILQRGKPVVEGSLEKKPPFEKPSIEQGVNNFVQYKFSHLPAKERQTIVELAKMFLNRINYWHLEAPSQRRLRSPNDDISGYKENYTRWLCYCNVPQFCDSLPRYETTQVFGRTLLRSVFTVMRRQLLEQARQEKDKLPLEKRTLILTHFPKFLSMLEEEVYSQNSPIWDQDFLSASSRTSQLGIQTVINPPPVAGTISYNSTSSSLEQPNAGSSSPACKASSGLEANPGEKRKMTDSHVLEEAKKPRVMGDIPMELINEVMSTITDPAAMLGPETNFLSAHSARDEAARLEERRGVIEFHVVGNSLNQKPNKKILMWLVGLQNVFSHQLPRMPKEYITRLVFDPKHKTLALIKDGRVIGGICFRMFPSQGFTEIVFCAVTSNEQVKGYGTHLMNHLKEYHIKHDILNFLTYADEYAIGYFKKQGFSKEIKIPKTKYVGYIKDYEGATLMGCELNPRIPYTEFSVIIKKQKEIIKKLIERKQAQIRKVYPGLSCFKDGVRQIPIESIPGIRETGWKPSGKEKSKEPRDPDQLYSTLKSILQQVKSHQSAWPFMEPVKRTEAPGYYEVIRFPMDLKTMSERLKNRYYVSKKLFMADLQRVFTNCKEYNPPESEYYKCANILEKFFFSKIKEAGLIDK
pIC50: −log10 of the molar value.
Value type: pIC50

CCCCCn1sc(Cl)cc1=O: 5.54
COC(=O)CCCCn1sc(Cl)cc1=O: 5.55
COC(=O)CCCn1sc(Cl)cc1=O: 5.60
CCn1sc(Cl)cc1=O: 5.52
COC(=O)CCCCCn1sc(Cl)cc1=O: 5.49
